tested on: UACC-62 melanoma; test: NCI tumour cell line growth inhibition, 48 h

- compound: "CC[C@@H](/C=C\\CCC1(C[C@H](O)CCC=C(C)C)OCCO1)O[Si](C(C)C)(C(C)C)C(C)C"
  censor-symbol: "="
  TGI / µM: 64.5
- compound: "COCCOCCOC1=C(Cl)C(=O)c2c(O)ccc(O)c2C1=O"
  censor-symbol: "="
  TGI / µM: 7.85
- compound: "COc1cc([C@@H]2c3cc4c(cc3[C@@H](NC(=O)c3ccccc3)C3COC(=O)[C@@H]32)OCO4)cc(OC)c1O (stereo not given in full)"
  censor-symbol: "="
  TGI / µM: 11.6
- compound: "Cc1nnc2n1-c1ccccc1C(=S)N1CSCC21 (stereo not given)"
  censor-symbol: ">"
  TGI / µM: 100
- compound: "COc1ccc2oc3cccc(NCCN(C)C)c3c(=O)c2c1"
  censor-symbol: "="
  TGI / µM: 26.6
